- Tested on: M19-MEL
- measurement-description: NCI tumour cell line growth inhibition, 48 h
Calls of active or inactive are those of the source. Cut-off read from the data, not from the text of the source: active = GI50 up to about 1.1 µM and inactive = higher.
measured-attribute: GI50

Cc1c(/C=N/NC(=O)c2ccccc2O)c(=O)n(-c2ccccc2)n1C	> 100 µM (inactive)
CCC[S+]([O-])c1nc(COC(=O)NC)c(COC(=O)NC)n1C (configuration not stated)	> 100 µM (inactive)
CC(=O)/C=C\C1CC2C=CC1C2 (configuration not stated)	55.3 µM (inactive)
CCCCCNC(=O)c1c(O)[nH]c(=S)[nH]c1=O	> 100 µM (inactive)
CCOC(=O)CCC1(C(=O)OCC)CCCC1=O (configuration not stated)	> 100 µM (inactive)
CC(=O)OC1CC2C(C)(C)OC(=O)CC(OC(C)=O)[C@]2(C)C2CCC3(C)C(=CCC3c3ccoc3)[C@]12C (some centres not stated)	17.5 µM (inactive)

Input line: Record request: GI50 value, item "CCCCCCCCCCCCCCCCCc1nnc(N)o1"
Output line: > 100 µM (inactive)

----------
I'd appreciate it if you could supply GI50 values for the items below.
- Test system: SR
- measurement-description: NCI tumour cell line growth inhibition, 48 h
Activity calls are given as the source filed them. No stated cut-off is given here; in the data, active = GI50 up to about 1.1 µM and inactive = higher.

Completed entries (count: 2):
CC1(C)CCC[C@]2(C)[C@@H](C=O)C(C=O)=CC[C@@H]12	18.2 µM (inactive)
COC(=O)C12CC3CC(C1)CC(C(=O)OC)(C3)C2	> 100 µM (inactive)

Please examine the following record next.
Input line: Record request: GI50 value, item "O=C1C(NCCc2ccc(O)c(O)c2)=CC(=O)c2ncccc21"
Output line: 9.98 µM (inactive)

----------
- System: LOX IMVI
- measurement-description: NCI tumour cell line growth inhibition, 48 h
Active and inactive are the calls of the source. No stated cut-off is given here; in the data, active = GI50 up to about 1.1 µM and inactive = higher.
Output constraint: value belongs to active, inactive

Use the examples below as a reference point.
C[C@H]1C(=O)O[C@@H]2CCN3CC=C(COC(=O)[C@](C)(O)[C@@]1(C)O)[C@H]23	inactive
CCOC(=O)C(C(=O)OCC)=C1NC2(c3ccccc3Nc3ccc(C)cc32)C(C#N)S1 (stereo not drawn)	inactive
C[C@H](OCc1ccccc1)C(=O)N1CCS(=O)(=O)N2CCC[C@H]2C1=O	inactive
Cc1cc(C)c(S(=O)(=O)N[C@@H](/C=C(\Br)CO)C(C)C)c(C)c1	inactive
CC(=O)O[C@H]1C(=O)[C@@]2(C)C(C(OC(=O)c3ccccc3)[C@]3(O)CC(OC(=O)C(O)C(NC(=O)c4ccc(C(F)(F)F)cc4)c4ccccc4)C(C)=C1C3(C)C)[C@]1(OC(C)=O)CO[C@@H]1C[C@@H]2O (stereo partly drawn)	active
COc1ccc(-c2c(-c3ccccc3)c(C)nc3nc(SC)nc(SC)c23)cc1OC	inactive

Input line: // outcome(item) with item = "O=c1cc(-c2ccccc2)oc2cc(O)cc(O)c12"
Output line: inactive

Input line: // outcome(item) with item = "CCN(CC)CCNc1ccc([N+](=O)[O-])c2nc3ccc(OC)cc3c(N)c12"
Output line: active

----------
- System: SN12C
- measurement-description: NCI tumour cell line growth inhibition, 48 h
Activity calls are given as the source filed them. Cut-off read from the data, not from the text of the source: active = GI50 up to about 1.1 µM and inactive = higher.
I'd appreciate it if you could supply GI50 values for the items below.

Completed entries (count: 5):
O=C1NC2C(=O)N(Cc3ccccc3)C(=O)C2N1 (configuration not stated)	> 100 µM (inactive)
Cc1cn(C2CC(SCCO)C(CO)O2)c(=O)[nH]c1=O (configuration not stated)	> 100 µM (inactive)
O=c1[nH]c2cc3[nH]c4ncccc4c(=O)c3cc2[nH]1	> 10 µM (inactive)
CCOc1ccc(/C=C\c2cc(OC)c(OC)c(OC)c2)cc1	0.00129 µM (active)
Cc1c(NC(=O)CSC(=S)N2CCN(Cc3ccccc3)CC2)c(=O)n(-c2ccccc2)n1C	> 100 µM (inactive)

Please give GI50, item by item, for the list that follows.
1. O=c1cc(-c2ccccc2)oc2cc(O)cc(O)c12 [CHRYSIN]
2. COc1cc(CN2CCCCC2)cc2cc(C(=O)O)c(=O)oc12
3. COc1ccc(C2N3CCCCC3[C@@H]3c4[nH]c5ccccc5c4CCN23)c(OC)c1 (some centres not stated)
4. Cc1cc2c(cc1-c1cc3c(cc1C)C(C(C)C)=C(O)C(=O)/C3=C\Nc1cccc3c(N)cccc13)/C(=C/Nc1cccc3c(N)cccc13)C(=O)C(O)=C2C(C)C
5. COC(=O)C1(c2cc3ccccc3n2S(=O)(=O)c2ccccc2)CC2C=CC1NC2 (configuration not stated)
6. O=C(CSc1nnc(-c2ccc(/N=C\c3ccc(Cl)cc3)cc2)o1)Nc1ccccc1
7. O=C(O)CC(CC(=O)O)n1cccc1

Output line:
["17.9 µM (inactive)", "> 100 µM (inactive)", "18 µM (inactive)", "> 100 µM (inactive)", "2.08 µM (inactive)", "> 100 µM (inactive)", "> 100 µM (inactive)"]

Please give GI50, item by item, for the list that follows.
1. COc1cc([C@H]2Oc3c(OC)cc(CCCO)cc3[C@@H]2CO)ccc1O [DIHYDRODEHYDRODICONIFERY ALCOHOL]
2. O=C(N/N=C(COc1ccc(Cl)cc1)\N=C\c1cccnc1)c1ccncc1
3. Cc1nc2ccc(Cl)cc2c2c1CCN2c1ccccc1
4. COc1ccc(/C=N/N=C(\N)NO)cc1OC

Output line:
["> 100 µM (inactive)", "> 100 µM (inactive)", "0.975 µM (active)", "45.8 µM (inactive)"]

Please give GI50, item by item, for the list that follows.
1. O=c1cc(O)ccn1C1C=C(CO)C(O)C1O (configuration not stated)
2. Cc1ccc2c(c1)C(C(=O)N[C@@H]1C(=O)N3[C@@H]1SC(C)(C)[C@@H]3C(=O)O)OCCC2 (some centres not stated)

Output line:
1: 586 µM (inactive); 2: > 100 µM (inactive)

Please give GI50, item by item, for the list that follows.
1. N=c1oc2ccc([N+](=O)[O-])cc2cc1C(=O)NCc1ccccc1
2. CNS(=O)(=O)NNS(=O)(=O)c1ccc2ccccc2c1
3. CC(=O)OC1CC2C(C)(C)OC(=O)CC(OC(C)=O)[C@]2(C)C2CCC3(C)C(=CCC3c3ccoc3)[C@]12C (some centres not stated)
4. N#CSC#CCCC#CSC#N
5. CCCCCC/C=C\CCCCCCCCCc1cccc(O)c1C(=O)O [GINKGOLIC ACID 17:1]

Output line:
19.9 µM (inactive)
> 100 µM (inactive)
32.6 µM (inactive)
17.7 µM (inactive)
> 100 µM (inactive)
